# assay method text: yeast display, Sf9 membrane polyspecificity reagent, FACS + sequencing; frameworks hold sequencing errors

{"biopolymer sequence": "QVQLVESGGGLVQAGGSLRLSCAAYGRYYSRNPMGWYRQAPGKERELVAAITWRGGSTYYADSVKGRFTISRDNAKNTVFLQMISLKPEDTAVYYCNRDYRQYGYAYSGRYYWGHGTQVTVSS", "polyreactivity (PSR sort gate)": "high polyreactivity"}
{"biopolymer sequence": "QVQLVESGGVLVQAGGSLRLSCAASGFTFAYYAMGWYRQAPGKVRELVASITRSGGSTYYADSVKGRFTLSRDNAKNTVYLQMNSLKPEDTAVYYCAARYGLVRDVIPYDYWGQGTQVTVSS", "polyreactivity (PSR sort gate)": "high polyreactivity"}
